The reported measurements were obtained from patent US6875760B2.

Target: cloned human glucagon receptor (Homo sapiens, UniProt P47871)
Construct: expressed in transfected cells; plasma membrane preparation
Assay: Glucagon Binding Assay (I)
Conditions: plasma membranes of BHK cells expressing the receptor, 125I-glucagon tracer; read-out: Glu Bd Assay (I) IC50
Experimental: Binding of compounds to the glucagon receptor was determined in a competition binding assay using the cloned human glucagon receptor. Receptor binding was assayed using cloned human receptor (Lok et al., Gene 140, 203-209 (1994)). […] Test compounds were dissolved and diluted in DMSO. […] Non-specific binding was determined with 10^−6 M of glucagon. […] The filters were counted in a gamma counter.
endpoint-label: IC50 (nM)

Below are worked cases with known answers.
compound: CC(C)(C)C1CCC(N(Cc2ccc(C(=O)NCCC(=O)O)cc2)C(=O)Nc2ccc(-c3ccccc3)cc2)CC1 (stereo not shown)
test-result: 20
//
compound: CCCCC(CC)CN(Cc1ccc(C(=O)NCCC(=O)O)cc1)C(=O)/C=C/c1c(Cl)cccc1Cl (stereo not shown)
test-result: 800

A: O=C(O)CCNC(=O)c1ccc(CN(CCc2ccc(Cl)c(Cl)c2)C(=O)c2csc3ccc(Cl)cc23)cc1
B: O=C(O)CCNC(=O)c1ccc(CN(CC(c2ccccc2)c2ccccc2)C(=O)c2csc3ccc(Cl)cc23)cc1
Which record shows the lower IC50: the first, A , or the second, B ? // return label of chosen record B
(B: 120 nM, A: 1300 nM)

P: CC(C)(C)c1ccc(CN(Cc2ccc(C(=O)NCCC(=O)O)cc2)C(=O)/C=C/c2c(Cl)cccc2Cl)cc1
Q: CCCCC(CC)CN(Cc1ccc(C(=O)NCCC(=O)O)cc1)C(=O)Nc1ccc(-c2ccccc2)cc1 (stereo not shown)
I would appreciate it if you could say which entry, P or Q , has the lower IC50 value. Answer by quoting the chosen item's label. Q
(Q: 42 nM, P: 1200 nM)

---

target: human glucagon receptor (Homo sapiens, UniProt P47871); construct: expressed in transfected cells; host or cells: BHK (baby hamster kidney) cells; assay: Glucagon Binding Assay (III); conditions: BHK cell membranes, WGA SPA beads, 125I-glucagon; read-out: Glu Bd Assay (III) IC50
Sequence (P47871 26-477): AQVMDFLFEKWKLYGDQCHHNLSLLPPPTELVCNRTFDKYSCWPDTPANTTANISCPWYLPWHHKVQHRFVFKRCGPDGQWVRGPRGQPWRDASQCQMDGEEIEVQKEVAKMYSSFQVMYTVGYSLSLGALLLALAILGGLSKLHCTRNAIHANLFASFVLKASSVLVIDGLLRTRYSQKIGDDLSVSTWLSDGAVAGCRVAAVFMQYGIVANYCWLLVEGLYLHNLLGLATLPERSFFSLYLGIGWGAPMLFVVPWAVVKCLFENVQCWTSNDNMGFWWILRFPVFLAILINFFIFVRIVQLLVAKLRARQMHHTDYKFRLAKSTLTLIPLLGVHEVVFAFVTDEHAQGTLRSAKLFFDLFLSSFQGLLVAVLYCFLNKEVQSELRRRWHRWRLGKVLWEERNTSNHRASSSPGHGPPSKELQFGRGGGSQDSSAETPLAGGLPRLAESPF
pIC50: −log10 of the molar value.
endpoint-label: pIC50

Sample records with pIC50:
compound: CC(C)(C)[C@H]1CC[C@@H](N(Cc2ccc(C(=O)Nc3nn[nH]n3)cc2)C(=O)Nc2cc(C(F)(F)F)cc(C(F)(F)F)c2)CC1
pIC50: 7.59
--
compound: CC(O)c1cccc(NC(=O)N(Cc2ccc(C(=O)Nc3nn[nH]n3)cc2)c2ccc(C3CCCCC3)cc2)c1 (centres unmarked)
pIC50: 6.68
--
compound: CC(C)(C)C1CCC(N(Cc2ccc(C(=O)NCCC(=O)O)cc2)C(=O)Nc2ccc(C#N)c(C(F)(F)F)c2)CC1 (centres unmarked)
pIC50: 6.77
--
compound: CCCCc1ccc(N(Cc2ccc(C(=O)NCCC(=O)O)cc2)C(=O)Nc2ccc(OC(F)(F)F)cc2)c(C)c1
pIC50: 6.29

1: CCS(=O)(=O)c1cccc(NC(=O)N(Cc2ccc(C(=O)Nc3nn[nH]n3)cc2)c2ccc(C(C)(C)C)cc2)c1
2: CC(C)N1C(=O)c2ccc(NC(=O)N(Cc3ccc(C(=O)Nc4nn[nH]n4)cc3)c3ccc(C4CCCCC4)cc3)cc2C1=O
3: CC(C)(C)[C@H]1CC[C@H](N(Cc2ccc(C(=O)NCCC(=O)O)cc2)C(=O)Nc2cc(-c3ccccc3)n[nH]2)CC1
// sort entries: pIC50, high to low // ordering of labels required in reply 2, 1, 3
(2: 8.10, 1: 6.67, 3: 5.93)

---

molecular target: human glucagon receptor (Homo sapiens, UniProt P47871); construct: expressed in transfected cells; host or cells: BHK (baby hamster kidney) cells; experiment: Glucagon Binding Assay (III); conditions: BHK cell membranes, WGA SPA beads, 125I-glucagon; read-out: Glu Bd Assay (III) IC50
pIC50: −log10 of the molar value.
endpoint-label: pIC50

a: CC(=O)c1cccc(NC(=O)N(Cc2ccc(C(=O)Nc3nn[nH]n3)cc2)c2ccc(C(C)(C)C)cc2)c1
b: O=C(O)CCNC(=O)c1ccc(CN(C(=O)NCc2ccccc2-c2ccccc2)[C@H]2CC[C@H](C3CCCCC3)CC2)cc1
Of a and b , whose reported pIC50 is the larger number? Respond with the label that goes with your answer. b

A: O=C(O)CCNC(=O)c1ccc(CN(CC(c2ccccc2)c2ccccc2)C(=O)Nc2ccc(Oc3ccccc3)cc2)cc1
B: CS(=O)(=O)c1cccc(NC(=O)N(Cc2ccc(C(=O)Nc3nn[nH]n3)cc2)c2ccc(C3CCCCC3)cc2)c1
I'd appreciate it if you could identify which of A and B has the greater pIC50. Give the chosen item's label as your response. B

---

target: human glucagon receptor (Homo sapiens); construct: expressed in transfected cells; host or cells: BHK (baby hamster kidney) cells; test: Glucagon Binding Assay (III); settings: BHK cell membranes, WGA SPA beads, 125I-glucagon; read-out: Glu Bd Assay (III) IC50
pIC50: −log10 of the molar value.
endpoint-label: pIC50

compound: CN(C)S(=O)(=O)c1cccc(NC(=O)N(Cc2ccc(C(=O)Nc3nn[nH]n3)cc2)c2ccc(C3CCCCC3)cc2)c1 [Example 275]
test-result: 7.00

A: O=C(Nc1nn[nH]n1)c1ccc(CN(C(=O)Nc2ccc(OC(F)(F)F)c(-c3nc4ccccc4o3)c2)c2ccc(C3CCCCC3)cc2)cc1 [Example 360]
B: CC(c1ccc(C(=O)Nc2nn[nH]n2)cc1)N(C(=O)Nc1ccc(OC(F)(F)F)cc1)c1ccc(C(C)(C)C)cc1 (centres unmarked) [Example 646]
Form: Entry with minimum pIC50 (choose one): A / B // caller expects the label of the chosen entry B

A: CCOC(=O)c1ccc2nc(NC(=O)N(Cc3ccc(C(=O)NCCC(=O)O)cc3)[C@H]3CC[C@H](C(C)(C)C)CC3)sc2c1 [Example 254]
B: CC(C)(C)C1CCC(N(Cc2ccc(C(=O)Nc3nn[nH]n3)cc2)C(=O)C2=CCc3ccccc32)CC1 (centres unmarked) [Example 546]
Lower pIC50: A or B ? Selection: enter the item's label. B
(B: 5.76, A: 6.58)

1: CC(C)(C)C1CCC(N(Cc2ccc(C(=O)Nc3nn[nH]n3)cc2)C(=O)c2ccc(Cc3ccccc3)cc2)CC1 (centres unmarked) [Example 512]
2: CC1C(N(Cc2ccc(C(=O)NCCC(=O)O)cc2)C(=O)Nc2ccc(OC(F)(F)F)cc2)CC2CC1C2(C)C (centres unmarked) [Example 65]
3: CC(C)(C)c1ccc(N(Cc2ccc(C(=O)NCCC(=O)O)cc2)C(=O)Nc2ccc3c(c2)C(=O)N(CC2CC2)C3=O)cc1 [Example 643]
4: CN(C)C(=O)c1cccc(NC(=O)N(Cc2ccc(C(=O)Nc3nn[nH]n3)cc2)c2ccc(C(C)(C)C)cc2)c1 [Example 461]
5: CSc1cccc(NC(=O)N(Cc2ccc(C(=O)NCCC(=O)O)cc2)C2CCC(C(C)(C)C)CC2)c1 (centres unmarked) [Example 26]
Order these by pIC50, descending, and give the full ranking. Labels, requested order. 3, 1, 2, 5, 4

1: CCCCc1ccc(N(Cc2ccc(C(=O)NCCC(=O)O)cc2)C(=O)Nc2ccc(OC(F)(F)F)cc2)cc1 [Example 372]
2: CCCCC(CC)CN(Cc1ccc(C(=O)NCCC(=O)O)cc1)C(=O)Nc1ccc(C)cc1 (centres unmarked) [Example 39]
Please indicate which item has the smaller measured pIC50: 1 versus 2 Indicate your choice by writing its label. 2
(2: 6.64, 1: 7.05)

---

biological target: human glucagon receptor (Homo sapiens, UniProt P47871); construct: expressed in transfected cells; host or cells: BHK (baby hamster kidney) cells; assay: Glucagon Binding Assay (III); settings: BHK cell membranes, WGA SPA beads, 125I-glucagon; read-out: Glu Bd Assay (III) IC50
endpoint-label: IC50 (nM)

Previously resolved entries follow.
molecule: CC(C)(C)c1ccc(N(Cc2ccc(C(=O)Nc3nn[nH]n3)cc2)C(=O)Nc2cccc(C(=O)O)c2)cc1
endpoint-label: IC50
test-result: 2810
--
molecule: CC(C)Cc1ccc(NC(=O)N(Cc2ccc(C(=O)NCCC(=O)O)cc2)C2CCC(C(C)(C)C)CC2)cc1 (centres unmarked)
endpoint-label: IC50
test-result: 39
--
molecule: CC(C)(C)C1CCC(N(Cc2ccc(C(=O)Nc3nn[nH]n3)cc2)C(=O)Nc2cccc(C#N)c2)CC1 (centres unmarked)
endpoint-label: IC50
test-result: 94

a: CC(C)(C)c1ccc(N(Cc2ccc(C(=O)Nc3nn[nH]n3)cc2)C(=O)/C=C/c2c(Cl)cccc2Cl)cc1
b: CC(C)c1ccc(NC(=O)N(CCc2ccc(Cl)cc2)Cc2ccc(C(=O)NCCC(=O)O)cc2)cc1
Between the entries labeled a and b , whose measured IC50 is lower? Your answer should be the label of the entry you select. b
(b: 383 nM, a: 819 nM)
